targetEntity: T1, human α-CGRP (Homo sapiens, UniProt P06881)
T1 construct: 1-37 (WT); purchased; host or cells: synthetic peptide
T1 sequence (P06881 83-119 limits assumed): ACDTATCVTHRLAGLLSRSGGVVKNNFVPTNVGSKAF
protocolSummary: Biacore affinity of antibody G1 Fab and variants to human α-CGRP
Assay type: binding
setupConditions: 37° C., Fab, screening mode unless underlined
Experimental: Biacore assay for affinity determination. […] All Biacore assays were conducted in HBS-EP running buffer (10 mM HEPES pH 7.4, 150 mM NaCl, 3 mM EDTA, 0.005% v/v polysorbate P20). […] High-resolution analysis of binding interactions with extremely slow offrates. […] The association rate constant (kon) was determined by injecting a 2-fold titration series (in duplicate) spanning 550 nM-1 nM for 30 seconds at 100 μL/min and allowing only a 30 second dissociation phase. […]

{"molecule": "M57: G1 variant: L1 R28N,T30D; L2 L56S; H2 E54K,A57N,S58E; HC-FW3 L99T,A100V (antibody, V domains shown) VH: EVQLVESGGGLVQPGGSLRLSCAASGFTFSNYWISWVRQAPGKGLEWVAEIRSKSDNEATHYAEAVKGRFTISRDNAKNSLYLQMNSLRAEDTAVYYCTVYFDYGLAIQNYWGQGTLVTVSS VL: EIVLTQSPATLSLSPGERATLSCKASKNVDTYVSWYQQKPGQAPRLLIYGASNRYSGIPARFSGSGSGTDFTLTISSLEPEDFAVYYCSQSYNYPYTFGQGTKLEIK", "α-human koff, s⁻¹": 0.000322}
